- Protocol: Linezolid concentration in blood plasma of beagle dogs after rectal administration of one suppository
- Format: in vivo
- Conditions used: dog, other: rectal, 600 mg, Example 5 particulate dispersion suppository, 600 mg linezolid, Dog 3 (10.1 kg), 1.5 h
Experimental readout: concentration at 1.5 h (ng/mL)
Write it as a number; the unit ng/mL goes unstated.

Lookup: Reported concentration at 1.5 h, compound CC(=O)NC[C@H]1CN(c2ccc(N3CCOCC3)c(F)c2)C(=O)O1 [Linezolid] : ____
Found: 3460

* * *

- Protocol: Linezolid concentration in blood plasma of beagle dogs after rectal administration of one suppository
- Format: in vivo
- Conditions used: dog, other: rectal, 20 mg, Example 2 solution suppository, 20 mg linezolid, Dog 4 (12.2 kg), 0.75 h
Experimental readout: concentration at 0.75 h (ng/mL)
Write it as a number; the unit ng/mL goes unstated.

Lookup: Reported concentration at 0.75 h, compound "CC(=O)NC[C@H]1CN(c2ccc(N3CCOCC3)c(F)c2)C(=O)O1" : ____
Found: 291

* * *

- Protocol: Linezolid concentration in blood plasma of beagle dogs after rectal administration of one suppository
- Assay type: in vivo
- Conditions used: dog, other: rectal, 20 mg, Example 2 solution suppository, 20 mg linezolid, Dog 4 (12.2 kg), 2 h
Experimental readout: concentration at 2 h (ng/mL)
Write it as a number; the unit ng/mL goes unstated.

Lookup: Reported concentration at 2 h, compound "CC(=O)NC[C@H]1CN(c2ccc(N3CCOCC3)c(F)c2)C(=O)O1" : ____
Found: 548

* * *

- Protocol: Linezolid concentration in blood plasma of beagle dogs after rectal administration of one suppository
- Assay type: in vivo
- Conditions used: dog, other: rectal, 600 mg, Example 5 particulate dispersion suppository, 600 mg linezolid, Dog 4 (12.5 kg), 0.5 h
- Procedure: One 20 mg linezolid suppository prepared as above was rectally administered to each of four beagle dogs, and the concentration of linezolid in blood plasma of the dogs was determined at different times after administration, as presented in Table 2. One 600 mg linezolid suppository prepared as above was rectally administered to each of four beagle dogs and the concentration of linezolid in blood plasma of the dogs was determined at different times after administration, as presented in Table 3.
Experimental readout: concentration at 0.5 h (µg/mL)
Write it as a number; the unit µg/mL goes unstated.

Lookup: Reported concentration at 0.5 h, compound "CC(=O)NC[C@H]1CN(c2ccc(N3CCOCC3)c(F)c2)C(=O)O1" : ____
Found: 1.72

* * *

- Protocol: Linezolid concentration in blood plasma of beagle dogs after rectal administration of one suppository
- Type: in vivo
- Conditions used: dog, other: rectal, 20 mg, Example 2 solution suppository, 20 mg linezolid, Dog 3 (10.5 kg), 3 h
Experimental readout: concentration at 3 h (ng/mL)
Write it as a number; the unit ng/mL goes unstated.

Lookup: Reported concentration at 3 h, compound "CC(=O)NC[C@H]1CN(c2ccc(N3CCOCC3)c(F)c2)C(=O)O1" : ____
Found: 317

* * *

- Protocol: Linezolid concentration in blood plasma of beagle dogs after rectal administration of one suppository
- Format: in vivo
- Conditions used: dog, other: rectal, 600 mg, Example 5 particulate dispersion suppository, 600 mg linezolid, Dog 1 (15.0 kg), 1.5 h
Experimental readout: concentration at 1.5 h (ng/mL)
Write it as a number; the unit ng/mL goes unstated.

Lookup: Reported concentration at 1.5 h, compound "CC(=O)NC[C@H]1CN(c2ccc(N3CCOCC3)c(F)c2)C(=O)O1" : ____
Found: 6260
